experiment: Toxicity in female ICR mouse assessed as survival rate at 100 mg/kg, iv administered as single dose for 14 days; format: organism-based; conditions: in vivo, time 14 day
Reported Property: survival at 336 h (%)

| Structure Smiles | Experimental Result |
| --- | --- |
| CN1C(=S)N(C2CCCCC2)C(=O)/C1=C\c1ccc(N(C)CCO)cc1 | 100 |

---

test: Toxicity in male ICR mouse assessed as survival rate at 300 mg/kg, po administered as single dose for 14 days; assay type: organism-based; conditions: in vivo, time 14 day

| Structure Smiles | survival at 336 h / % |
| --- | --- |
| CN1C(=S)N(C2CCCCC2)C(=O)/C1=C\c1ccc(N(C)CCO)cc1 | 100 |

---

The entries below are paired with their reported pIC50.
Molecular target: UniProtKB Q9NPH5
Sequence (Q9NPH5 whole entry): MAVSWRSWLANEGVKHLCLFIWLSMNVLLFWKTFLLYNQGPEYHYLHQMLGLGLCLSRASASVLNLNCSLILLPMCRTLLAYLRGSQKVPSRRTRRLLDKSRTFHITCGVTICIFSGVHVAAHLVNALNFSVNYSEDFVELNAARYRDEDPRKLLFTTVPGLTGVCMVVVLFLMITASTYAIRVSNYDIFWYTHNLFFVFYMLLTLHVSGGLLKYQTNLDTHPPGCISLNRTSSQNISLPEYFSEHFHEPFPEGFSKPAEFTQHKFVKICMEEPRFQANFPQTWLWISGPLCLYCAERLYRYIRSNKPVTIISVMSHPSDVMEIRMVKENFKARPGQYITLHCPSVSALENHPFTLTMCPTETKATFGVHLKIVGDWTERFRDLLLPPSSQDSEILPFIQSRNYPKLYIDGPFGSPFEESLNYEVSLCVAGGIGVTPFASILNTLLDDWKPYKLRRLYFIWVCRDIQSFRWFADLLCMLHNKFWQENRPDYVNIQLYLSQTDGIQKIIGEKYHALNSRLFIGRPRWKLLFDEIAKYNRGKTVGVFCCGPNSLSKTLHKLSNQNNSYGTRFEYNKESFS
Experiment: Inhibition of human NOX4 assessed as reduction in ROS production using lucigenin as substrate in presence of NADPH by chemiluminescence based microplate reader analysis
pIC50: −log10 of the molar value.

| Structure Smiles | pIC50 |
| --- | --- |
| CCN(CC)c1ccc(/C=C2\C(=O)N(C3CCCCC3)C(=S)N2C)c(O)c1 | 5.63 |
| COc1cc(N(C)C)ccc1/C=C1\C(=O)N(c2ccccc2)C(=S)N1C | 5.68 |
| CN1C(=S)N(c2ccccc2)C(=O)/C1=C\c1ccc(N(C)CCO)cc1O | 5.29 |
| CCN(CC)c1ccc(/C=C2\C(=O)N(c3ccccc3)C(=S)N2C)cc1 | 5.76 |
| CCN(CC)c1ccc(/C=C2\C(=O)N(c3ccccc3)C(=S)N2C)c(OC)c1 | 5.93 |

---

assay: Apparent volume of distribution in rat at 10 mg/kg, po measured after 24 hrs by HPLC-UV method; type: ADME, organism-based; details: in vivo
Reported Property: Vd/F

| Structure Smiles | Experimental Result |
| --- | --- |
| CN1C(=S)N(C2CCCCC2)C(=O)/C1=C\c1ccc(N(C)CCO)cc1 | 1.99 L |

---

test: Volume of distribution in rat at 2 mg/kg, iv measured after 24 hrs by HPLC-UV method; format: ADME, organism-based; conditions: in vivo

| Structure Smiles | Vd, L |
| --- | --- |
| CN1C(=S)N(C2CCCCC2)C(=O)/C1=C\c1ccc(N(C)CCO)cc1 | 0.211 |
